# Target Or System: T1, CTLA-4-hFc (immunogen A; hFc-labeled CTLA-4 extracellular domain protein) (human, UniProt P16410 36-161)
# T1 construct: range 36-161; Made in HEK293 cells, purified on protein A; also called CLTA-4-hFc; CTLA-4 protein; not shown: human IgG Fc fragment (hFc) of the pCpC vector
# T1 sequence (looked up): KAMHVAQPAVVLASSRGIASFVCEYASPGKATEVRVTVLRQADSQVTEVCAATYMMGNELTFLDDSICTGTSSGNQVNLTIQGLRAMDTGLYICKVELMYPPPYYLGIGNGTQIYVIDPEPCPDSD
# Protocol: ELISA, coated CTLA-4-hFc, competitor biotin-B7.2-hFc
# Experimental: CTLA-4 extracellular domain protein (CTLA-4-hFc) was diluted with PBS to a final concentration of 1.0 μg/mL, and then added to a 96-well ELISA plate as 100 μl per well. The plate was covered with a plastic film and incubated overnight at 4° C. […] An ELISA plate reader (SpectraMax 384plus, Molecular Device) was used to read the A450 nm value.
Endpoint Label: Inhibition rate (%) at 0.274 nM
The response must be a number in % with no trailing unit.

# input Value lookup for Inhibition rate (%) at 0.274 nM; key = 31C12F3 (chimeric antibody purified from hybridoma supernatant) (antibody, V domains shown, also called mAb010) VH: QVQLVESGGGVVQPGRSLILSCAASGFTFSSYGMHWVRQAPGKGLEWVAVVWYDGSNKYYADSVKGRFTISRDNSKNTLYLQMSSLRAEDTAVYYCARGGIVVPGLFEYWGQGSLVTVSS VL: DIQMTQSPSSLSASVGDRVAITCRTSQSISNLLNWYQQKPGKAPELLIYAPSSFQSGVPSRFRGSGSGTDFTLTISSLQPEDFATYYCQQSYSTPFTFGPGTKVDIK
# output 17.1
